Origin of values: the supplement of paper PMC8967900

Here, each record is paired with measured selective drug sensitivity score data.
# Test system: CCRF-CEM;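 also: ALL cell lines in 384-well plates, five doses spanning 10,000-fold, each plate scaled between vehicle and 100 µmol/L benzalkonium chloride controls, sDSS an adapted area-under-curve metric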
# method-notes: selective drug sensitivity score (sDSS, relative to normal bone marrow) (sDSS (score)); higher = more potent and effective on the cell line relative to normal bone marrow cells
# conditions: 72 h

Illustrative cases are given below, each with its answer.
INSERT INTO assay_data (compound, result_value) VALUES
  ('COCC1(CO)C(=O)C2CCN1CC2 (stereo not given) [APR-246] (top concentration 10000 nM)', -0.86),
  ('O=C(O)c1ccc(-c2c[nH]c3ncc(-c4ccccc4)cc23)cc1C1CCCC1 (top concentration 10000 nM)', 3.66),
  ('CCCCCOC(=O)Nc1nc(=O)n([C@@H]2O[C@H](C)[C@@H](O)[C@H]2O)cc1F [Capecitabine] (top concentration 10000 nM)', -0.06),
  ('CO[C@H]1C(=O)[C@]2(C)[C@@H](OC)C[C@H]3OC[C@@]3(OC(C)=O)[C@H]2[C@H](OC(=O)c2ccccc2)[C@]2(O)C[C@H](OC(=O)[C@H](O)[C@@H](NC(=O)OC(C)(C)C)c3ccccc3)C(C)=C1C2(C)C [Cabazitaxel] (top concentration 1000 nM)', 20.5),
  ('Cc1sc2c(c1C)C(c1ccc(Cl)cc1)=N[C@@H](CC(=O)OC(C)(C)C)c1nnc(C)n1-2 [JQ1] (top concentration 10000 nM)', 1.32),
  ('O=C1Cc2cc(C(=O)NC3C[C@H]4CC[C@@H](C3)N4S(=O)(=O)CC3CCN(CCCC(F)(F)F)CC3)c(Cl)cc2N1 (stereo not given in full) (top concentration 10000 nM)', 0),
  ('CO[C@@H](C(=O)N1Cc2[nH]nc(NC(=O)c3ccc(N4CCN(C)CC4)cc3)c2C1)c1ccccc1 [Danusertib] (top concentration 10000 nM)', 18.5),
  ('C[C@H]1Oc2cc(cnc2N)-c2c(nn(C)c2C#N)CN(C)C(=O)c2ccc(F)cc21 (top concentration 1000 nM)', -0.72);

What value of selective drug sensitivity score has been reported for the following compound? Cc1cccc(CC(=O)N2CCc3c2ccc(-c2cn(C)c4ncnc(N)c24)c3F)n1 (top concentration 2500 nM)
-0.08

What value of selective drug sensitivity score has been reported for the following compound? CCCc1cc(C)[nH]c(=O)c1CNC(=O)c1cc(-c2ccnc(N3CCN(C)CC3)c2)cc2c1cnn2C(C)C [GSK343] (top concentration 1000 nM)
0
